Test: in vivo
Settings: female, BALB/c, mouse, ip, 2 mg/kg
ENDPOINT_NAME: MRT

GET /value?item= Cc1nc(-c2ccc(C3N(C)c4ccc(F)cc4C(=O)N3c3ccccc3)s2)cs1 (stereo not shown) &field=MRT returns 4.2 h

---

Assay: in vivo
Conditions: female, BALB/c, mouse, iv, 2 mg/kg
ENDPOINT_NAME: MRT (h)
The reply should be a number in h, with the unit left off.

The compound Cc1nc(-c2ccc(C3N(C)c4ccc(F)cc4C(=O)N3c3ccccc3)s2)cs1 (stereo not shown) [Retro-2.1] showed MRT equal to 2.9

---

Test: in vivo
Details: female, BALB/c, mouse, iv, 2 mg/kg
ENDPOINT_NAME: Vd (L/kg)
Kindly answer with a numeric value in L/kg, unit omitted.

GET /value?item= Cc1nc(-c2ccc(C3N(C)c4ccc(F)cc4C(=O)N3c3ccccc3)s2)cs1 (stereo not shown) &field=Vd returns 27.5
